Where do these numbers come from? They come from PubChem BioAssay AID1053133.

experiment: blocks a specific stage of Vaccinia orthopoxvirus infection, primary screen, cell-based, single point (AID 1053133); conditions: Vaccinia-infected cells, mCherry/Venus stage reporter fluorescence, stronger effect = lower value, concentration not given here
The campaign covered roughly 89,000 compounds. About 10 (0.01%) were called active. Another 10% or so got no clear call; they are omitted. Not all results are given here.
Give activity change (mCherry) for every item shown.

Incoming: Could you please provide reported activity change (mCherry) for COc1ccc(NC(=O)N(C)C[C@@H]2OCCCC[C@H](C)Oc3ccc(NS(=O)(=O)c4cn(C)cn4)cc3C(=O)N([C@@H](C)CO)C[C@@H]2C)cc1 ? Thanks!
Outgoing: 16% (inactive)

Incoming: Provide one value: measured activity change (mCherry) of C[C@@H]1CN([C@@H](C)CO)C(=O)c2cc(NC(=O)C3CCCCC3)ccc2O[C@@H](C)CCCCO[C@H]1CN(C)C(=O)Nc1ccc2c(c1)OCO2
Outgoing: 1.01% (inactive)

Incoming: Using the record for O=C(C1CCCC1)N1[C@H](CO)[C@@H]2c3ccccc3N(S(=O)(=O)c3ccccc3)C[C@@H]21 , state its measured activity change (mCherry).
Outgoing: 3.15% (inactive)

Incoming: Indicate the recorded activity change (mCherry) value for this compound: CO[C@H]1CN(C)C(=O)c2ccc(NC(=O)C3CCOCC3)cc2OC[C@H](C)NC[C@H]1C
Outgoing: -0.453% (inactive)

Incoming: Answer with reported activity change (mCherry) of CCC(=O)N1CCC2(CC1)CN(Cc1ccc(Cl)cc1)[C@@H](CO)c1[nH]c3cc(OC)ccc3c12
Outgoing: 2.91% (inactive)

Incoming: Check the records and state activity change (mCherry) for CN(C)C(=O)c1ccc(-c2ccc(C3[C@H]4CNC[C@@H]3N4C(=O)Nc3cc(F)ccc3F)cc2)cc1 (stereo partly drawn)
Outgoing: 14.7% (inactive)

Incoming: Using the record for O=C(C[C@H]1CC[C@H]2[C@@H](COC[C@@H](O)CN2S(=O)(=O)c2ccc(Cl)cc2)O1)NCCN1CCCCC1 , state its measured activity change (mCherry).
Outgoing: 7.02% (inactive)

Incoming: Give activity change (mCherry) for CO[C@@H]1CN(C)C(=O)c2cc(NC(=O)C3CC3)ccc2OC[C@H](C)N(C(=O)CN(C)C)C[C@H]1C
Outgoing: -2.47% (inactive)

###

assay: blocks a specific stage of Vaccinia orthopoxvirus infection, primary screen, cell-based, single point (AID 1053133); conditions: Vaccinia-infected cells, mCherry/Venus stage reporter fluorescence, stronger effect = lower value, concentration not given here; measured here: Venus reporter, other viral stage
In all, about 89,000 compounds went through this assay and about 10 (0.01%) were called active. Another 10% or so got no clear call; they are omitted. The list is a sample of the results.
parameter.measured: activity change (Venus) (%)
Numbers only here, please. The scale is %.

Incoming: Provide one value: measured activity change (Venus) of CO[C@H]1CN(C)C(=O)c2ccc(NC(=O)c3ccccc3F)cc2OC[C@H](C)N(C(=O)c2ccccc2F)C[C@H]1C
Outgoing: 2.58

Incoming: Please supply the value of reported activity change (Venus) for the item CCC(=O)Nc1ccc2c(c1)OC[C@@H](C)N(Cc1ccccc1OC)C[C@H](C)[C@H](OC)CN(C)C2=O
Outgoing: -6.3

Incoming: Please supply the value of reported activity change (Venus) for the item COc1ccc(S(=O)(=O)Nc2ccc3c(c2)C(=O)N([C@@H](C)CO)C[C@H](C)[C@H](CN(C)Cc2ccc(C(=O)O)cc2)OCCCC[C@@H](C)O3)cc1
Outgoing: 19.1

Incoming: Hello, please tell me recorded activity change (Venus) for this one: C[C@H](CO)N1C[C@H](C)[C@H](CN(C)Cc2cccc(F)c2)Oc2ncc(C#CCN(C)C)cc2C1=O
Outgoing: -6.38

Incoming: Input COc1ccc2c3c(n(C)c2c1)[C@@H](CO)N(S(C)(=O)=O)CC31CCN(C(=O)C2CCC2)CC1 , output reported activity change (Venus).
Outgoing: -12.1

Incoming: Find the measured activity change (Venus) of COCC(=O)Nc1ccc2c(c1)C(=O)N(C)[C@@H]1CC[C@H](CC(=O)NCC3CC3)O[C@@H]1CO2 and report it.
Outgoing: 8.99

Incoming: Answer with reported activity change (Venus) of O=C(C[C@@H]1CC[C@@H]2[C@H](COC[C@H](O)CN2C(=O)Nc2cccc(Cl)c2)O1)NCCCN1CCOCC1
Outgoing: 5.06

Incoming: Write down activity change (Venus) measured for item O=C(Nc1ccccc1F)N1CC(=O)N2[C@H](CO)[C@H](c3ccc(C#CC4CC4)cc3)[C@@H]2C1
Outgoing: -0.75
